- settings: mouse, in vivo, sc, 50 mg/kg
e = 2'-O-(2-methoxyethyl) (MOE); d = 2'-deoxy (DNA)
Bilirubin below 0.2 mg/dL gives NOT MET; Bilirubin at or above it gives MET.

Reference set (4 entries):
• ISIS 416852: MOE gapmer, nucleobases 1275 to 1318 of SEQ ID NO: 1 (Table 8) (antisense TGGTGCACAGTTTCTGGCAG; MOE gapmer, wing and gap sizes not given here) = NOT MET
• ISIS 416851: MOE gapmer, nucleobases 1275 to 1318 of SEQ ID NO: 1 (Table 8) (antisense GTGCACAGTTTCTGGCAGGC; MOE gapmer, wing and gap sizes not given here) = NOT MET
• ISIS 416858: MOE gapmer, nucleobases 1275 to 1318 of SEQ ID NO: 1 (Table 8) (antisense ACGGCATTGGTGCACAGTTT; MOE gapmer, wing and gap sizes not given here) = MET
• ISIS 416849: MOE gapmer, nucleobases 1275 to 1318 of SEQ ID NO: 1 (Table 8) (antisense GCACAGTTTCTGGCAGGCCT; MOE gapmer, wing and gap sizes not given here) = MET

Evaluate ISIS 412225: 5-10-5 MOE gapmer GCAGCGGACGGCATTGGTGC (sugars from the 5' end e5 d10 e5, backbone and methylation of C not given here) : Bilirubin at minimum 0.2 mg/dL?
MET

* * *

- Test system: blood coagulation
- assay.text: PT and aPTT assay in cynomolgus monkeys (Example 45)
- Assay type: in vivo
- settings: day 8; escalating dose regimen; platelet poor plasma
measurement.kind: PT ratio (INR)
Kindly provide the number alone.

- ISIS 416838: MOE gapmer, nucleobases 1018 to 1042 of SEQ ID NO: 1 (Table 6) (antisense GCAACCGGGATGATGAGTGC; MOE gapmer, wing and gap sizes not given here): 1.03

Which PT ratio (INR) value is on record for ISIS 417002: MOE gapmer, nucleobases 1275 to 1318 of SEQ ID NO: 1 (Table 8) (antisense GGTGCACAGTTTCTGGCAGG; MOE gapmer, wing and gap sizes not given here) ?
1.02

# iterate: ISIS 416858: MOE gapmer, nucleobases 1275 to 1318 of SEQ ID NO: 1 (Table 8) (antisense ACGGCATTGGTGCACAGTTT; MOE gapmer, wing and gap sizes not given here)
1.05

# iterate: ISIS 416850: MOE gapmer, nucleobases 1275 to 1318 of SEQ ID NO: 1 (Table 8) (antisense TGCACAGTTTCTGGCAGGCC; MOE gapmer, wing and gap sizes not given here)
1.00

# iterate: ISIS 416864: MOE gapmer, nucleobases 1275 to 1318 of SEQ ID NO: 1 (Table 8) (antisense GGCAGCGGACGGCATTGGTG; MOE gapmer, wing and gap sizes not given here)
1.02

* * *

- assay.text: Bleeding assay, Surgicutt Jr. device (Example 45)
- Type: in vivo, cynomolgus monkeys
- Parameters: unit not given here
- settings: day −5; escalating dose regimen
bleeding time by entry:
Kindly provide the number alone.

# count of solved cases: 4
- ISIS 416838: MOE gapmer, nucleobases 1018 to 1042 of SEQ ID NO: 1 (Table 6) (antisense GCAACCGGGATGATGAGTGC; MOE gapmer, wing and gap sizes not given here): 150
- ISIS 416850: MOE gapmer, nucleobases 1275 to 1318 of SEQ ID NO: 1 (Table 8) (antisense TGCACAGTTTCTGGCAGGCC; MOE gapmer, wing and gap sizes not given here): 127
- ISIS 417002: MOE gapmer, nucleobases 1275 to 1318 of SEQ ID NO: 1 (Table 8) (antisense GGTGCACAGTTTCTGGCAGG; MOE gapmer, wing and gap sizes not given here): 175
- ISIS 416864: MOE gapmer, nucleobases 1275 to 1318 of SEQ ID NO: 1 (Table 8) (antisense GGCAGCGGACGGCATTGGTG; MOE gapmer, wing and gap sizes not given here): 111

Next up:
Which bleeding time value is on record for ISIS 416858: MOE gapmer, nucleobases 1275 to 1318 of SEQ ID NO: 1 (Table 8) (antisense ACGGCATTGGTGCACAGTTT; MOE gapmer, wing and gap sizes not given here) ?
149

* * *

- Test system: platelet aggregation
- assay.text: Platelet aggregation assay, ADP and/or collagen (Example 45)
- Assay type: in vivo, cynomolgus monkeys
- settings: day 85 (with ADP); escalating dose regimen
platelet aggregation by entry:
Write the answer as a number in Ohms, unit excluded.

# count of solved cases: 4
* ISIS 416864: MOE gapmer, nucleobases 1275 to 1318 of SEQ ID NO: 1 (Table 8) (antisense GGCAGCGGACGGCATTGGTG; MOE gapmer, wing and gap sizes not given here) | 22
* ISIS 416838: MOE gapmer, nucleobases 1018 to 1042 of SEQ ID NO: 1 (Table 6) (antisense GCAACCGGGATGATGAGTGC; MOE gapmer, wing and gap sizes not given here) | 15
* ISIS 417002: MOE gapmer, nucleobases 1275 to 1318 of SEQ ID NO: 1 (Table 8) (antisense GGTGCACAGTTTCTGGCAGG; MOE gapmer, wing and gap sizes not given here) | 22
* ISIS 416858: MOE gapmer, nucleobases 1275 to 1318 of SEQ ID NO: 1 (Table 8) (antisense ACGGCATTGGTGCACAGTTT; MOE gapmer, wing and gap sizes not given here) | 18

Next up:
Which platelet aggregation value is on record for ISIS 416850: MOE gapmer, nucleobases 1275 to 1318 of SEQ ID NO: 1 (Table 8) (antisense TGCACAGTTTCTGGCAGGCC; MOE gapmer, wing and gap sizes not given here) ?
22

* * *

Neutrophil by entry:
- settings: mouse, in vivo, sc, 50 mg/kg
e = 2'-O-(2-methoxyethyl) (MOE); d = 2'-deoxy (DNA)
Write the answer as a number in cells/μL, unit excluded.

# count of solved cases: 5
* ISIS 416865: MOE gapmer, nucleobases 1275 to 1318 of SEQ ID NO: 1 (Table 8) (antisense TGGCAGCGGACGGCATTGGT; MOE gapmer, wing and gap sizes not given here) | 1227
* ISIS 416857: MOE gapmer, nucleobases 1275 to 1318 of SEQ ID NO: 1 (Table 8) (antisense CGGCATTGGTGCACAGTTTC; MOE gapmer, wing and gap sizes not given here) | 1334
* ISIS 413482: 5-10-5 MOE gapmer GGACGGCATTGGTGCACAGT (sugars from the 5' end e5 d10 e5, backbone and methylation of C not given here) | 1958
* ISIS 416851: MOE gapmer, nucleobases 1275 to 1318 of SEQ ID NO: 1 (Table 8) (antisense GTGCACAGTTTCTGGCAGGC; MOE gapmer, wing and gap sizes not given here) | 1619
* ISIS 416852: MOE gapmer, nucleobases 1275 to 1318 of SEQ ID NO: 1 (Table 8) (antisense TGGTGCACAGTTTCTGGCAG; MOE gapmer, wing and gap sizes not given here) | 1241

Which Neutrophil value is on record for ISIS 412224: 5-10-5 MOE gapmer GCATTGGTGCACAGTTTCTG (sugars from the 5' end e5 d10 e5, backbone and methylation of C not given here) ?
2107

# iterate: ISIS 416848: MOE gapmer, nucleobases 1275 to 1318 of SEQ ID NO: 1 (Table 8) (antisense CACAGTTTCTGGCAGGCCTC; MOE gapmer, wing and gap sizes not given here)
1264

# iterate: ISIS 416854: MOE gapmer, nucleobases 1275 to 1318 of SEQ ID NO: 1 (Table 8) (antisense ATTGGTGCACAGTTTCTGGC; MOE gapmer, wing and gap sizes not given here)
2082

# iterate: ISIS 416856: MOE gapmer, nucleobases 1275 to 1318 of SEQ ID NO: 1 (Table 8) (antisense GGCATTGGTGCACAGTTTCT; MOE gapmer, wing and gap sizes not given here)
1292

# iterate: ISIS 416858: MOE gapmer, nucleobases 1275 to 1318 of SEQ ID NO: 1 (Table 8) (antisense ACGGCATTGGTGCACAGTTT; MOE gapmer, wing and gap sizes not given here)
2229

# iterate: ISIS 416850: MOE gapmer, nucleobases 1275 to 1318 of SEQ ID NO: 1 (Table 8) (antisense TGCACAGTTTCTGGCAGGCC; MOE gapmer, wing and gap sizes not given here)
1144

# iterate: ISIS 413481: 5-10-5 MOE gapmer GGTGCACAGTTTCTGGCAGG (sugars from the 5' end e5 d10 e5, backbone and methylation of C not given here)
1904

# iterate: ISIS 412225: 5-10-5 MOE gapmer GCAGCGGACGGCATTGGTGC (sugars from the 5' end e5 d10 e5, backbone and methylation of C not given here)
1547

# iterate: ISIS 416867: MOE gapmer, nucleobases 1275 to 1318 of SEQ ID NO: 1 (Table 8) (antisense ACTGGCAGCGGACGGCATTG; MOE gapmer, wing and gap sizes not given here)
1404

# iterate: ISIS 416860: MOE gapmer, nucleobases 1275 to 1318 of SEQ ID NO: 1 (Table 8) (antisense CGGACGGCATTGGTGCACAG; MOE gapmer, wing and gap sizes not given here)
1291

Where do these numbers come from? They come from patent US20230263822A1.
